pEC50 values, listed per item
Target: Opioid Receptor Kappa 1 (OPRK1) (Homo sapiens, UniProt P41145)
Sequence (P41145 whole entry): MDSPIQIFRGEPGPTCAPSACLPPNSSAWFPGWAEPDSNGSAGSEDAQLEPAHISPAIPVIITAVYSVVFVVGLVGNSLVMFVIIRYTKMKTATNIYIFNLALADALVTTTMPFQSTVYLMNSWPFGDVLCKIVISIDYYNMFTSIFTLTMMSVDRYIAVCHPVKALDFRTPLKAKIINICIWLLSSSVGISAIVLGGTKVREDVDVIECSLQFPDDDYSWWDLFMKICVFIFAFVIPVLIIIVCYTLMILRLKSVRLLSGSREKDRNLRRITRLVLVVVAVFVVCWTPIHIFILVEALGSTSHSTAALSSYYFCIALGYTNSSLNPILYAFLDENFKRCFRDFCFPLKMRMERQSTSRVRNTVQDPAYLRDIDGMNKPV
Assay: cAMP assay, OPRK1
Type: cell-based
pEC50: −log10 of the molar value. Counter-ions that a name gives are not always drawn.
Test readout: pEC50

| Molecule | Target | Test readout | Reading |
| --- | --- | --- | --- |
| CNC(C)C(=O)c1c[nH]c2ccc(Cl)cc12 (stereo not drawn) [BK-5Cl-NM-AMT, hydrochloride] | Opioid Receptor Kappa 1 (OPRK1) (Homo sapiens, UniProt P41145) | pEC50 | < 5.00 |
| CNC(C)C(=O)c1c[nH]c2ccc(Br)cc12 (stereo not drawn) [BK-5Br-NM-AMT, hydrochloride] | Opioid Receptor Kappa 1 (OPRK1) (Homo sapiens, UniProt P41145) | pEC50 | < 5.00 |
| CNC(C)C(=O)c1c[nH]c2ccc(F)cc12 (stereo not drawn) [BK-5F-NM-AMT, hydrochloride] | Opioid Receptor Kappa 1 (OPRK1) (Homo sapiens, UniProt P41145) | pEC50 | < 5.00 |

----------
Target or system human 5-HT transporter (hSERT) (Homo sapiens, UniProt P31645); recorded quantity pIC50.
pIC50: −log10 of the molar value.
Test readout: pIC50

| Compound | Reading |
| --- | --- |
| CNC(C)C(=O)c1c[nH]c2ccc(F)cc12 (stereo not drawn) [drawing 183] | 5.46 |
| CNC(C)C(=O)c1c[nH]c2ccc(Br)cc12 (stereo not drawn) [drawing 184] | 5.25 |
| CNC(C)C(=O)c1c[nH]c2ccc(Cl)cc12 (stereo not drawn) [drawing 185] | 5.60 |

----------
Biological target: Norepinephrine transporter (NET) (Homo sapiens)
Sequence (P23975 whole entry): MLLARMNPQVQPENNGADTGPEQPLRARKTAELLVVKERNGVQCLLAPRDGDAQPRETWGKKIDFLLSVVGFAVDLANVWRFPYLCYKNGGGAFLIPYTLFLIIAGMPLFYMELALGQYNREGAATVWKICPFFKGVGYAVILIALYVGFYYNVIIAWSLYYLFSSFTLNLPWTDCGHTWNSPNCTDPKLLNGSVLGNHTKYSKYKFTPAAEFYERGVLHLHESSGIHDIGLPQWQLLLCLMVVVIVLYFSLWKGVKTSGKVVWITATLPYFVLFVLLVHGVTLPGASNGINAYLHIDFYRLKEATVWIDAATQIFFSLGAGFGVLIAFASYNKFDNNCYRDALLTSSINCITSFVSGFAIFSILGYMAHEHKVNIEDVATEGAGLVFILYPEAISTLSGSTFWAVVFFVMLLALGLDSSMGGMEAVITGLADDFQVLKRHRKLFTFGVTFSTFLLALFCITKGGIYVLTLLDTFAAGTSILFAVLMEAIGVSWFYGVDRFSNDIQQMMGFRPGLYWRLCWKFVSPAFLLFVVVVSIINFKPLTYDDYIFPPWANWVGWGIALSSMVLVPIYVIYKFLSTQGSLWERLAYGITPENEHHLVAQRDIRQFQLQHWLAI
Assay: Monoamine transporter uptake assay (fluorescent substrate), NET
Where a name gives a salt, the structure may show the parent alone.
IC50 values, listed per item

| Compound | IC50 |
| --- | --- |
| CNC(C)C(=O)c1c[nH]c2ccc(F)cc12 (stereo not drawn) [BK-5F-NM-AMT, hydrochloride] | > 10 µM |
| CNC(C)C(=O)c1c[nH]c2ccc(Cl)cc12 (stereo not drawn) [BK-5Cl-NM-AMT, hydrochloride] | > 10 µM |
| CNC(C)C(=O)c1c[nH]c2ccc(Br)cc12 (stereo not drawn) [BK-5Br-NM-AMT, hydrochloride] | > 10 µM |

----------
Where a name gives a salt, the structure may show the parent alone.
Target or system Opioid Receptor Mu (OPRM1) (Homo sapiens); recorded quantity IC50.

| Compound | IC50 |
| --- | --- |
| CNC(C)C(=O)c1c[nH]c2ccc(F)cc12 (stereo not drawn) [BK-5F-NM-AMT, hydrochloride] | > 10 µM |
| CNC(C)C(=O)c1c[nH]c2ccc(Cl)cc12 (stereo not drawn) [BK-5Cl-NM-AMT, hydrochloride] | > 10 µM |
| CNC(C)C(=O)c1c[nH]c2ccc(Br)cc12 (stereo not drawn) [BK-5Br-NM-AMT, hydrochloride] | > 10 µM |

----------
Target: Adrenergic Receptor α1A (ADRA1A) (Homo sapiens, UniProt P35348)
Sequence (P35348 whole entry): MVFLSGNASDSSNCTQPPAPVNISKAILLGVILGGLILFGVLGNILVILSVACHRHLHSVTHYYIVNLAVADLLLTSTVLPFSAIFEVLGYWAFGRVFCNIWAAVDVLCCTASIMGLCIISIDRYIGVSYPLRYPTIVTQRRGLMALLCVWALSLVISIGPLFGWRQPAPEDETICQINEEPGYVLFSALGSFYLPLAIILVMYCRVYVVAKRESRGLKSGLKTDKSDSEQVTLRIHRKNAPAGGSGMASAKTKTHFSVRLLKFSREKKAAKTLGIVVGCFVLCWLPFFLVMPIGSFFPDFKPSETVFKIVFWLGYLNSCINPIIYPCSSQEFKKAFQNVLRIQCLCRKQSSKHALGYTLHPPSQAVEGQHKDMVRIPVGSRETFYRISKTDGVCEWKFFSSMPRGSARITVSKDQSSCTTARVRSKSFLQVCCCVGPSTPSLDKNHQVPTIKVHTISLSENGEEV
Assay: Calcium flux assay, ADRA1A
Structures can show the parent of a compound that is named as a salt.
EC50 values, listed per item

| Compound | EC50 |
| --- | --- |
| CNC(C)C(=O)c1c[nH]c2ccc(F)cc12 (stereo not drawn) [BK-5F-NM-AMT, hydrochloride] | > 10 µM |
| CNC(C)C(=O)c1c[nH]c2ccc(Br)cc12 (stereo not drawn) [BK-5Br-NM-AMT, hydrochloride] | 8.24 µM |
| CNC(C)C(=O)c1c[nH]c2ccc(Cl)cc12 (stereo not drawn) [BK-5Cl-NM-AMT, hydrochloride] | > 10 µM |

Every entry's value here was drawn from patent US20230257347A1.
